Test system: NCI-H2405
method_summary: relative viability (nuclei count vs DMSO), 5 days (fraction); higher = more cells survive
measurement_conditions: first compound 0.1 µM
Label condition met when relative viability is strictly below 0.8; at or above that, label condition not met.

compound="CCN(CC)CCCCNc1ncc2cc(-c3cc(OC)cc(OC)c3)c(NC(=O)NC(C)(C)C)nc2n1 + Nc1ncn([C@H]2C[C@H](O)[C@@H](CO)O2)c(=O)n1 [Decitabine] (partner 2 µM)" class_name="condition met"
compound="CCN(CC)CCCCNc1ncc2cc(-c3cc(OC)cc(OC)c3)c(NC(=O)NC(C)(C)C)nc2n1 + COc1cc2c(Oc3ccc(NC(=O)C4(C(=O)Nc5ccc(F)cc5)CC4)cc3F)ccnc2cc1OCCCN1CCOCC1 [Foretinib] (partner 0.25 µM)" class_name="condition not met"
compound="O=c1cc(N2CCOCC2)oc2c(-c3cccc4c3sc3ccccc34)cccc12 + CC(=O)c1c(C)c2cnc(Nc3ccc(N4CCNCC4)cn3)nc2n(C2CCCC2)c1=O [Palbociclib] (partner 0.5 µM)" class_name="condition met"
compound="CCN(CC)CCCCNc1ncc2cc(-c3cc(OC)cc(OC)c3)c(NC(=O)NC(C)(C)C)nc2n1 + Nc1nc2[nH]cc(CCc3ccc(C(=O)N[C@@H](CCC(=O)O)C(=O)O)cc3)c2c(=O)[nH]1 [Pemetrexed] (partner 0.2 µM)" class_name="condition not met"
compound="CCN(CC)CCCCNc1ncc2cc(-c3cc(OC)cc(OC)c3)c(NC(=O)NC(C)(C)C)nc2n1 + CS(=O)(=O)CCNCc1ccc(-c2ccc3ncnc(Nc4ccc(OCc5cccc(F)c5)c(Cl)c4)c3c2)o1 [Lapatinib] (partner 2 µM)" class_name="condition not met"
compound="O=c1cc(N2CCOCC2)oc2c(-c3cccc4c3sc3ccccc34)cccc12 + Nc1nc2[nH]cc(CCc3ccc(C(=O)N[C@@H](CCC(=O)O)C(=O)O)cc3)c2c(=O)[nH]1 [Pemetrexed] (partner 0.2 µM)" class_name="condition not met"
compound="O=c1cc(N2CCOCC2)oc2c(-c3cccc4c3sc3ccccc34)cccc12 + O=C(c1cc(Cc2n[nH]c(=O)c3ccccc23)ccc1F)N1CCN(C(=O)C2CC2)CC1 [Olaparib] (partner 8 µM)" class_name="condition not met"
compound="CCN(CC)CCCCNc1ncc2cc(-c3cc(OC)cc(OC)c3)c(NC(=O)NC(C)(C)C)nc2n1 + C[C@]1(O)C[C@@H](c2nc(-c3ccc4ccc(-c5ccccc5)nc4c3)c3c(N)nccn32)C1 [Linsitinib] (partner 1 µM)" class_name="condition not met"
